# System: TO-3-N3 (biotin conjugate)
# ASSAY_DETAILS: pull-down binding Z-score (relative to library population); higher = stronger binding
# ASSAY_CONDITIONS: RNA library: Library-2
Recorded pull-down binding Z-score determines the label; the label ranges are low bracket (below -0.4), middle bracket (-0.4 to below 0.2), high bracket (0.2 or more)

Qu. Please classify: UCACUCACUGAGUGA [IAV_invivo_NP_5_Motif_1+IAV_invivo_NP_5_Motif_1]
Ans. middle bracket

Qu. Please classify: GAAGAUUCUGAAAAUCACUAACU [hsa-mir-6878]
Ans. middle bracket

Qu. Please classify: GAAUGCGUCAUCAUCUGAAGCAUUU
Ans. low bracket

Qu. Please classify: UCAGCACCUGAACGCCAAGGCUGG [hsa-mir-3150a]
Ans. low bracket

Qu. Please classify: CCCAGCUUUGUGACUGUAAGUGUUGGA [hsa-mir-184]
Ans. high bracket

Qu. Please classify: CCCAAGCAGGCUUUGUGUGAGCAGUGAGGCUAUUUAUUCACUUGGGUGCGAGCUCACACGAAGCCUGCUUGGG [hsa-mir-6839]
Ans. high bracket

Qu. Please classify: CGCGCGUCGAGUCAGCCGUGUG [hsa-mir-933]
Ans. middle bracket

Qu. Please classify: UGGGUUGGGUUGGGUUGGGUUGGGUUGGGUUGGGUUGGGU [G4_r(UGGGU)8]
Ans. high bracket

Qu. Please classify: UUUUGCAUUUAAAGUAAUGGCCAAA [hsa-mir-548ay]
Ans. low bracket

Qu. Please classify: CCCUAAGACUAAAAAUGUUACAAAAGAAAAUGACUCUAAAGAGGGUUUUUUCACUUACAUUUGUGGG [DMSMaPseq_invitro_SARS-CoV-2_Motif_371]
Ans. low bracket

Qu. Please classify: UAUUGGGCCAAUUCCCCCAAUG [hsa-mir-4781]
Ans. low bracket

Qu. Please classify: AGGGCAGGGGUGUGGCU [hsa-mir-4751]
Ans. high bracket

Qu. Please classify: AGGAGGGUCC [hsa-mir-3141]
Ans. high bracket

Qu. Please classify: GCCUCGCUUCCUGCCGGCGCGGC [hsa-mir-1538]
Ans. middle bracket

Qu. Please classify: CUUAAUAGAUUAAUAUUUGUAAG [hsa-mir-506]
Ans. low bracket

Qu. Please classify: CAGAGUCACAUGUUGACACUG
Ans. high bracket

Qu. Please classify: UCAUACUGAAAGCGAACUUCAGUGUGA [IAV_invivo_NS1_NEP_8_Motif_9+IAV_invivo_NS1_NEP_8_Motif_9]
Ans. middle bracket

Qu. Please classify: CUGCAGAACAUUGCAG [hsa-mir-4310]
Ans. low bracket

Qu. Please classify: UUUGCCUCUCUCAGAAAAUAGAGUCAAA [hsa-mir-4694]
Ans. high bracket

Qu. Please classify: GUGCACUUCAUUUACGAUGUAG [hsa-mir-1193]
Ans. high bracket

Qu. Please classify: CCACGGGCUGGGCACAGUGG [hsa-mir-3159]
Ans. high bracket
